# Subject Of Test: Cyclin-dependent kinase 2 (Homo sapiens, UniProt P24941)
# Assay Notes: Inhibition of CDK2/Cyclin E assessed as inhibition of retinoblastoma susceptibility gene product phosphorylation
Outcome Measure: IC50

The cases that follow already have their IC50 on record.
COc1ccc(CN/C=C2\C(=O)NC(=O)c3ccc(Cl)cc32)cc1O: < 50 µM
O=C1NC(=O)c2ccc(Br)cc2/C1=C/NCc1ccc(O)c(O)c1: < 50 µM
COCCOc1ccc(CN/C=C2\C(=O)NC(=O)c3ccc(Br)cc32)cc1O: < 50 µM

Request: Answer with reported IC50 of COc1cnc(CN/C=C2\C(=O)NC(=O)c3ccc(I)cc32)nc1O
Response: > 50 µM

* * *

# Subject Of Test: Cyclin-dependent kinase 4/cyclin D1 (Homo sapiens)
# Sequence (P11802 whole entry): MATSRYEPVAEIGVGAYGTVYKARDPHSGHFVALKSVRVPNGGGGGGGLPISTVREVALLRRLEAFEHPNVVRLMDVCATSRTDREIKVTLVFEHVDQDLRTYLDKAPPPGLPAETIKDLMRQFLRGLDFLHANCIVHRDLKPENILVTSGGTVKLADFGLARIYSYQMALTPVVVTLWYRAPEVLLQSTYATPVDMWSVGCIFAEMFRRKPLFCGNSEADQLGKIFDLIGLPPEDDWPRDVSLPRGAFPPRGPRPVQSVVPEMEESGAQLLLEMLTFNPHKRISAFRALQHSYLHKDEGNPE
# Sequence (P24385 whole entry, further chain): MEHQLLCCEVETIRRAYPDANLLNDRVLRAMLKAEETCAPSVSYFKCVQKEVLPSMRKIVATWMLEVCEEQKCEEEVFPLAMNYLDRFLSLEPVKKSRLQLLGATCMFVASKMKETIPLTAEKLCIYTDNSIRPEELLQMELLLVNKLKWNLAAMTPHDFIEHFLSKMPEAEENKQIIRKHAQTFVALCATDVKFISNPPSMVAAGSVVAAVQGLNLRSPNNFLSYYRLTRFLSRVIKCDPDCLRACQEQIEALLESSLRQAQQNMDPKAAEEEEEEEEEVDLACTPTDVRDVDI
# Assay Notes: Inhibition of CDK4/Cyclin D1 assessed as inhibition of retinoblastoma susceptibility gene product phosphorylation
pIC50 overview
Remember, pIC50 is on a log scale: it is -log10 of the molar concentration.

The cases that follow already have their pIC50 on record.
O=C1NC(=O)c2ccccc2/C1=C/Nc1ccc(O)c(O)c1: 5.11
CC(C)(C)c1ccc2c(c1)/C(=C/NCc1cc(O)c(-c3ccccc3)cn1)C(=O)NC2=O: 7.52

Request: Answer with reported pIC50 of O=C1NC(=O)c2ccccc2/C1=C/NCc1ccc(O)c(O)c1
Response: 5.92

Request: Answer with reported pIC50 of CCCOc1cnc(CN/C=C2\C(=O)NC(=O)c3ccc(C(C)(C)C)cc32)cc1O
Response: 7.70

Request: Answer with reported pIC50 of CCCOc1ccc(CN/C=C2\C(=O)NC(=O)c3ccc(I)cc32)nc1O
Response: 7.70

Request: Answer with reported pIC50 of Cc1ccc(CN/C=C2\C(=O)NC(=O)c3ccc(I)cc32)cc1O
Response: 7.52

Request: Answer with reported pIC50 of O=C1NC(=O)c2ccc(I)cc2/C1=C/NCc1ccc(-c2ccccn2)c(O)c1
Response: 4.71

Request: Answer with reported pIC50 of COc1cnc(CN/C=C2\C(=O)NC(=O)c3ccc(I)cc32)cc1O
Response: 8.00

Request: Answer with reported pIC50 of O=C1NC(=O)c2ccc(I)cc2/C1=C/NCc1ccc(-c2cccnc2)c(O)c1
Response: 8.00

Request: Answer with reported pIC50 of O=C1NC(=O)c2ccccc2/C1=C/NCCc1ccc(O)c(O)c1
Response: 4.79
